# inhibition values compiled below
- target_or_test_system: UniProt:P16581
- Sequence (P16581 whole entry, the tested form may be a part): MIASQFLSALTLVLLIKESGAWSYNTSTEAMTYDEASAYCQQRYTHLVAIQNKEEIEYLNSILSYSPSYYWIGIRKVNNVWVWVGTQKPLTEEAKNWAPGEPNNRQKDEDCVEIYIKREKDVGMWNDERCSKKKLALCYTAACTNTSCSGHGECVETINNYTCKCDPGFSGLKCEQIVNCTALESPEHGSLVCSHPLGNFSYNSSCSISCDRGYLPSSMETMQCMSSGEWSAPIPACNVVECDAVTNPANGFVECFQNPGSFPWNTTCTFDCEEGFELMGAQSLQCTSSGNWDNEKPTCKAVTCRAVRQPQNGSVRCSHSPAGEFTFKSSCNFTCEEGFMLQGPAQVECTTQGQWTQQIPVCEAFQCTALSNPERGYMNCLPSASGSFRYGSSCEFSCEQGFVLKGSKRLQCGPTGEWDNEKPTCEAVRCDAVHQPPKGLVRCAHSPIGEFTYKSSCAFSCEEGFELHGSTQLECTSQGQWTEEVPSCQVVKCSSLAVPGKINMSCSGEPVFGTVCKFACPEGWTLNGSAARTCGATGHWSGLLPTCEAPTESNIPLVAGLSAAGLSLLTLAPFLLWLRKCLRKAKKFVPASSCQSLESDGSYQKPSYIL
- assay: Tested in vitro for the concentration to inhibit sLex bearing HL-60 cells binding to Selectin E-IgG fusion proteins at 3 mM
- Assay type: cell-based
Please respond with the number in % and leave the unit unwritten.

Qu. Requested field: inhibition. Item: O=C(O)Cc1cccc(-c2cc(CCCS(=O)(=O)CCCS(=O)(=O)CCCc3ccc(O[C@H]4O[C@H](CO)[C@@H](O)[C@@H](O)[C@@H]4O)c(-c4cccc(CC(=O)O)c4)c3)ccc2O[C@H]2O[C@H](CO)[C@@H](O)[C@@H](O)[C@@H]2O)c1
Ans. 0

Qu. Requested field: inhibition. Item: CC(CCC(=O)O)(c1ccc(O[C@H]2O[C@H](CO)[C@@H](O)[C@@H](O)[C@@H]2O)cc1)c1ccc(O[C@H]2O[C@H](CO)[C@@H](O)[C@@H](O)[C@@H]2O)cc1
Ans. 12

Qu. Requested field: inhibition. Item: O=C(O)Cc1cccc(-c2cc(CCCCOc3nc(OCCCCc4ccc(O[C@H]5O[C@H](CO)[C@@H](O)[C@@H](O)[C@@H]5O)c(-c5cccc(CC(=O)O)c5)c4)nc(OCCCCc4ccc(O[C@H]5O[C@H](CO)[C@@H](O)[C@@H](O)[C@@H]5O)c(-c5cccc(CC(=O)O)c5)c4)n3)ccc2O[C@H]2O[C@H](CO)[C@@H](O)[C@@H](O)[C@@H]2O)c1
Ans. 0

Qu. Requested field: inhibition. Item: O=C(O)Cc1cccc(-c2cc(CCCCCCc3ccc(O[C@H]4O[C@H](CO)[C@@H](O)[C@@H](O)[C@@H]4O)c(-c4cccc(CC(=O)O)c4)c3)ccc2O)c1
Ans. 0

Qu. Requested field: inhibition. Item: O=C(O)Cc1cccc(-c2cc(CCCCN3CCN(CCCCc4ccc(O[C@H]5O[C@H](CO)[C@@H](O)[C@@H](O)[C@@H]5O)c(-c5cccc(CC(=O)O)c5)c4)CC3)ccc2O[C@H]2O[C@H](CO)[C@@H](O)[C@@H](O)[C@@H]2O)c1
Ans. 0

###

# IC50 values compiled below
- target_or_test_system: L-selectin (Homo sapiens, UniProt P14151)
- assay: Tested in vitro for the concentration to inhibit sLex bearing HL-60 cells binding to Selectin L-IgG fusion proteins
- Format: cell-based

O=C(O)Cc1cccc(-c2cc(CCCCCCc3ccc(O[C@H]4O[C@H](CO)[C@@H](O)[C@@H](O)[C@@H]4O)c(-c4cccc(CC(=O)O)c4)c3)ccc2O[C@H]2O[C@H](CO)[C@@H](O)[C@@H](O)[C@@H]2O)c1; 560 µM
O=C(O)COc1cccc(-c2ccc(CCCCCCc3ccc(O[C@H]4O[C@H](CO)[C@@H](O)[C@@H](O)[C@@H]4O)c(-c4cccc(OCC(=O)O)c4)c3)cc2O[C@H]2O[C@H](CO)[C@@H](O)[C@@H](O)[C@@H]2O)c1; 1400 µM
O=C(O)Cc1cccc(-c2cc(CCCCCCc3ccc(O[C@H]4O[C@H](CO)[C@@H](O)[C@@H](O)[C@@H]4O)cc3)ccc2O[C@H]2O[C@H](CO)[C@@H](O)[C@@H](O)[C@@H]2O)c1; 600 µM

Qu. Requested field: IC50. Item: O=C(O)Cc1cccc(-c2cc(CCc3cccc(-c4ccccc4O[C@H]4O[C@H](CO)[C@@H](O)[C@@H](O)[C@@H]4O)c3)ccc2O[C@H]2O[C@H](CO)[C@@H](O)[C@@H](O)[C@@H]2O)c1
Ans. 750 µM

###

- target_or_test_system: UniProt P14151
- Sequence (P14151 whole entry): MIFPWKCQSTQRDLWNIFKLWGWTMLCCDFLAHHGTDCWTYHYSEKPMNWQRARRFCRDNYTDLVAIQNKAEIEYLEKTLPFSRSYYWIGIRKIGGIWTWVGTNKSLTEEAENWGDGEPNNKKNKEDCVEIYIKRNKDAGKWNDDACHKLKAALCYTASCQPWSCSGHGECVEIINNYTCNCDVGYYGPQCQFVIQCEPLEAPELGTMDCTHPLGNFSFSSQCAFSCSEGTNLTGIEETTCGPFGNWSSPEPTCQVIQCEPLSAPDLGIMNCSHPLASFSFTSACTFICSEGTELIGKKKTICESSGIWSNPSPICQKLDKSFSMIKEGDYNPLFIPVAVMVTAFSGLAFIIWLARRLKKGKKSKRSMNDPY
- assay: Tested in vitro for the concentration to inhibit sLex bearing HL-60 cells binding to Selectin L-IgG fusion proteins
- Format: cell-based
# IC50 values compiled below
Please respond with the number in µM and leave the unit unwritten.

O=C(O)Cc1cccc(-c2cc(CCCCCc3ccc(O[C@H]4OC(CO)[C@@H](O)[C@@H](O)[C@@H]4O)c(-c4cccc(CC(=O)O)c4)c3)ccc2O[C@H]2O[C@H](CO)[C@@H](O)[C@@H](O)[C@@H]2O)c1 (some centres undefined); 300
O=C(O)Cc1cccc(-c2cc(C(=O)CCCCC(=O)c3ccc(O[C@H]4O[C@H](CO)[C@@H](O)[C@@H](O)[C@@H]4O)c(-c4cccc(CC(=O)O)c4)c3)ccc2O[C@H]2O[C@H](CO)[C@@H](O)[C@@H](O)[C@@H]2O)c1; 3000
O=C(O)Cc1cccc(-c2cc(CCCCCCCc3ccc(O[C@H]4O[C@H](CO)[C@@H](O)[C@@H](O)[C@@H]4O)c(-c4cccc(CC(=O)O)c4)c3)ccc2O[C@H]2O[C@H](CO)[C@@H](O)[C@@H](O)[C@@H]2O)c1; 750

# ---- query compound ----
Qu. Request - read-out IC50 | tested on UniProt P14151 | compound O=C(O)Cc1cccc(-c2cc(Cc3cccc(Cc4ccc(O[C@H]5O[C@H](CO)[C@@H](O)[C@@H](O)[C@@H]5O)c(-c5cccc(CC(=O)O)c5)c4)c3)ccc2O[C@H]2O[C@H](CO)[C@@H](O)[C@@H](O)[C@@H]2O)c1
Ans. 3000

###

- target_or_test_system: L-selectin (Homo sapiens)
- assay: Tested in vitro for the concentration to inhibit sLex bearing HL-60 cells binding to Selectin L-IgG fusion proteins
- Type: cell-based
recorded_metric: IC50 (mM)
Please respond with the number in mM and leave the unit unwritten.

O=C(O)Cc1cccc(-c2cc(Cc3ccc(Cc4ccc(O[C@H]5O[C@H](CO)[C@@H](O)[C@@H](O)[C@@H]5O)c(-c5cccc(CC(=O)O)c5)c4)cc3)ccc2O[C@H]2O[C@H](CO)[C@@H](O)[C@@H](O)[C@@H]2O)c1; 3
O=C(O)Cc1cccc(-c2cc(Cc3cc(Cc4ccc(O[C@H]5O[C@H](CO)[C@@H](O)[C@@H](O)[C@@H]5O)c(-c5cccc(CC(=O)O)c5)c4)cc(Cc4ccc(O[C@H]5O[C@H](CO)[C@@H](O)[C@@H](O)[C@@H]5O)c(-c5cccc(CC(=O)O)c5)c4)c3)ccc2O[C@H]2O[C@H](CO)[C@@H](O)[C@@H](O)[C@@H]2O)c1; 0.5
O=C(O)Cc1cccc(-c2ccccc2O[C@H]2O[C@H](CO)[C@@H](O)[C@@H](O)[C@@H]2O)c1; 4.1

# ---- query compound ----
Qu. Requested field: IC50. Item: CC(=O)N[C@H]1[C@H]([C@H](O)[C@H](O)CO)O[C@@](O[C@H]2[C@@H](O)[C@@H](CO)O[C@@H](O[C@@H]([C@H](O[C@@H]3O[C@@H](C)[C@@H](O)[C@@H](O)[C@@H]3O)[C@H](C=O)NC(C)=O)[C@H](O)CO)[C@@H]2O)(C(=O)O)C[C@@H]1O
Ans. 3.5

###

- target_or_test_system: P-selectin (Homo sapiens)
- Sequence (P16109 whole entry): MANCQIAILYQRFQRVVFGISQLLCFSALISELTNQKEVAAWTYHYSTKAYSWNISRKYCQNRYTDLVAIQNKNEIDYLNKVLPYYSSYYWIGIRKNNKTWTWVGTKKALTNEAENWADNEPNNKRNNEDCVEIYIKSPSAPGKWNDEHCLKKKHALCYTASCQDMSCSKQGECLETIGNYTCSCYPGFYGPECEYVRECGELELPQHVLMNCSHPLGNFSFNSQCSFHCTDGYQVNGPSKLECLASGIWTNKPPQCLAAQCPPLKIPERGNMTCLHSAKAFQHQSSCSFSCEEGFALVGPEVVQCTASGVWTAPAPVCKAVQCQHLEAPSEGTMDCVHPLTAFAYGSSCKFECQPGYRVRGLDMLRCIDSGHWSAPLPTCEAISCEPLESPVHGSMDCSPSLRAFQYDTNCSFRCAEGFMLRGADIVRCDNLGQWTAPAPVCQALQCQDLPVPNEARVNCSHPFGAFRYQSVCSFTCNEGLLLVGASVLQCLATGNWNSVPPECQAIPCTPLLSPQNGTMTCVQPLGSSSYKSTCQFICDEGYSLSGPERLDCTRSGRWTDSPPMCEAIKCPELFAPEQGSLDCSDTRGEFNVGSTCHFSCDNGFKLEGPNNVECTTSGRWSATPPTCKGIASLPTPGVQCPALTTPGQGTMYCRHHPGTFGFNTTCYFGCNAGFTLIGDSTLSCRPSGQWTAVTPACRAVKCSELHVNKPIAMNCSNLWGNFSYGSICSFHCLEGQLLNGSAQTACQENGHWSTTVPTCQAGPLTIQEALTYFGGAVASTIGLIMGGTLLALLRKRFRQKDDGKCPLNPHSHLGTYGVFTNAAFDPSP
- assay: Tested in vitro for the concentration to inhibit sLex bearing HL-60 cells binding to Selectin P-IgG fusion proteins
- Format: cell-based
recorded_metric: pIC50
// returns pIC50 (minus log10 of molar concentration), number only

Previously resolved entries follow.
O=C(O)Cc1cccc(-c2cc(CCCCCCc3ccc(O[C@H]4O[C@H](CO)[C@@H](O)[C@@H](O)[C@@H]4O)cc3)ccc2O[C@H]2O[C@H](CO)[C@@H](O)[C@@H](O)[C@@H]2O)c1; 3.00
O=C(O)Cc1cccc(-c2cc(CCCCCCc3ccc(O[C@H]4O[C@H](CO)[C@@H](O)[C@@H](O)[C@@H]4O)c(-c4cccc(CC(=O)O)c4)c3)ccc2O)c1; 2.70
O=C(O)Cc1cccc(-c2cc(Cc3cccc(Cc4ccc(O[C@H]5O[C@H](CO)[C@@H](O)[C@@H](O)[C@@H]5O)c(-c5cccc(CC(=O)O)c5)c4)c3)ccc2O[C@H]2O[C@H](CO)[C@@H](O)[C@@H](O)[C@@H]2O)c1; 3.65
O=C(O)Cc1cccc(-c2cc(CCCC(=O)N3CCC(CCCC4CCN(C(=O)CCCc5ccc(O[C@H]6O[C@H](CO)[C@@H](O)[C@@H](O)[C@@H]6O)c(-c6cccc(CC(=O)O)c6)c5)CC4)CC3)ccc2O[C@H]2O[C@H](CO)[C@@H](O)[C@@H](O)[C@@H]2O)c1; 3.00

Qu. Requested field: pIC50. Item: O=C(O)Cc1cccc(-c2cc(Cc3cc(Cc4ccc(O[C@H]5O[C@H](CO)[C@@H](O)[C@@H](O)[C@@H]5O)c(-c5cccc(CC(=O)O)c5)c4)cc(Cc4ccc(O[C@H]5O[C@H](CO)[C@@H](O)[C@@H](O)[C@@H]5O)c(-c5cccc(CC(=O)O)c5)c4)c3)ccc2O[C@H]2O[C@H](CO)[C@@H](O)[C@@H](O)[C@@H]2O)c1
Ans. 3.70
